# METHOD: in vivo
# ASSAY SETUP: BALB/c, mouse, sc, 50 mg/kg
*1 amine or outer side, *2 acyl side, *3 side chain or, on linkers, in order; H or OH if unused. Where a SMILES comes first, the peptide text is derived from it. [ ]: non-standard residue; d: D form. The star is where a group is joined. X1 = O=C(C[C@H](N[*:1])c1ccc(O)cc1)[*:2]; dVal(3-OH) = CC(C)(O)[C@@H](N)C(=O)O; ΔIle(E) = CC/C(C)=C(/N)C(=O)O; Isovaleryl = CC(C)CC(=O)*; Agmatine = N=C(N)NCCCCN*; NMeA = CN[C@@H](C)C(=O)O; ΔVal = CC(C)=C(N)C(=O)O
MEASURED ENDPOINT: level at 2 h

Ask | Write down level at 2 h measured for item CC/C(C)=C(/NC(=O)[C@H](NC(=O)[C@@H](NC(=O)[C@@H](CCCNC(=N)N)NC(=O)C(NC(=O)[C@H](NC(=O)C[C@H](NC(=O)[C@H](NC(=O)[C@H](NC(=O)[C@H](C)N(C)C(=O)[C@H](C)NC(=O)C(NC(=O)CC(C)C)=C(C)C)C(C)C)C(C)C)c1ccc(O)cc1)C(C)C)=C(C)C)C(C)C)C(C)C)C(=O)N[C@H](C)C(=O)N[C@@H](C(=O)NCCCCNC(=N)N)C(C)(C)O [MyxA, Myxovalargin A] (Isovaleryl-[ΔVal]A[NMeA][dV][dV][X1][dV][ΔVal][dR]V[dV][ΔIle(E)][dA][dVal(3-OH)]-Agmatine)
Reply | 2280 ng/mL

From: paper PMC9853869
